The reported measurements were obtained from PubChem BioAssay AID686978.

Assay: qHTS for Inhibitors of human tyrosyl-DNA phosphodiesterase 1 (TDP1): qHTS in cells in absence of CPT; further: nearly all actives have a fitted effect of over 55% in size
Conditions: DT40 Tdp1-/- hTDP1 cells, no CPT, ATP luminescence, 48 h
About 64,000 (15%) of roughly 420,000 compounds were called active. Roughly 27% stayed inconclusive and do not appear here. The call rests on the fitted dose curve; in most records, active means well fitted inhibition curve with a large enough effect; inconclusive means small, poorly fitted or top-dose-only effect; inactive means flat fitted curve, though single readings scatter. Only a sample is shown.
Bench note: report the call from active, inactive

(Q) Identify the outcome logged in this assay for the compound shown: CCc1ccccc1NC(=O)CSc1nnc([C@@H](NC(=O)OC(C)(C)C)C(C)C)o1
(A) inactive

* * *

Assay: qHTS for Inhibitors of human tyrosyl-DNA phosphodiesterase 1 (TDP1): qHTS in cells in absence of CPT; further: nearly all actives have a fitted effect of over 55% in size; further: potency means the concentration at half of the fitted maximal effect
Conditions: DT40 Tdp1-/- hTDP1 cells, no CPT, ATP luminescence, 48 h
The campaign covered roughly 420,000 compounds. About 64,000 (15%) were called active. Another 27% or so got no clear call; they are omitted. Only a sample is shown.
valueType: Potency

Study these solved cases before continuing.
>  <molecule>
Cc1ccc(C)c(S(=O)(=O)n2nc(C)c(S(=O)(=O)N3CCC(C)CC3)c2C)c1

>  <Potency>
inactive

$$$$
>  <molecule>
CC(C)CN1CC(C)C(=O)N(c2ccccc2)C1=S (configuration not stated)

>  <Potency>
inactive

$$$$
>  <molecule>
CCCCNC(=O)Nc1c(C)cc(SC#N)cc1C

>  <Potency>
8.2 µM (active)

$$$$
>  <molecule>
COc1cc(C)ccc1OCC(=O)OCC(=O)c1ccc[nH]1

>  <Potency>
inactive

$$$$
>  <molecule>
N#Cc1cccc(-c2nc3cnc(N4CCNCC4)nc3n(C3CC3)c2=O)c1

>  <Potency>
3.66 µM (active)

$$$$

(Q) Entry CS(=O)(=O)N(Cc1ccccc1Cl)c1ccc(C(=O)NCc2cccnc2)cc1 has what Potency?
(A) 14.6 µM (active)

(Q) Entry O=C(COC(=O)Cc1ccccc1F)NNC(=O)c1ccc(Cl)cc1 has what Potency?
(A) inactive

(Q) Entry O=C(NCc1cccnc1)c1cccnc1Sc1ccc(Cl)cc1 has what Potency?
(A) inactive

(Q) Entry Cc1ccc(S(=O)(=O)N(Cc2ccc(Cl)cc2)c2ccccc2C(=O)NCc2cccnc2)cc1 has what Potency?
(A) 23.1 µM (active)

(Q) Entry Nc1cc(N2CCCCCC2)c2nonc2c1[N+](=O)[O-] has what Potency?
(A) inactive

(Q) Entry CN(C(=O)CN1C(=O)CCSc2ccc(S(=O)(=O)N3CCCC3)cc21)c1ccccc1 has what Potency?
(A) inactive

(Q) Entry O=c1c(-c2ccc(F)cc2)nc2cnc(N3CCOCC3)nc2n1-c1ccccc1 has what Potency?
(A) inactive

* * *

Experiment: qHTS for Inhibitors of human tyrosyl-DNA phosphodiesterase 1 (TDP1): qHTS in cells in absence of CPT; further: nearly all actives have a fitted effect of over 55% in size; further: potency means the concentration at half of the fitted maximal effect
Details: DT40 Tdp1-/- hTDP1 cells, no CPT, ATP luminescence, 48 h
The whole screen tested about 420,000 compounds, of which about 64,000 (15%) were called active. Not shown: some 27% with an inconclusive outcome. The list is a sample of the results.
valueType: Potency

Study these solved cases before continuing.
>  <compound>
O=C(C1=C(O)C(=O)N(CCOCCO)C1c1ccccn1)c1cccs1 (stereo unspecified)

>  <valueType>
Potency

>  <measurement>
inactive

$$$$
>  <compound>
CNC(=O)CN1C(=O)c2ccccc2S1(=O)=O

>  <valueType>
Potency

>  <measurement>
inactive

$$$$
>  <compound>
CCc1cc2c(=O)n(-c3ccccc3)c(SCC(=O)O)nc2s1

>  <valueType>
Potency

>  <measurement>
inactive

$$$$
>  <compound>
CC(C)(C)c1ccc(CN2C(=O)c3ccccc3S2(=O)=O)cc1

>  <valueType>
Potency

>  <measurement>
20.6 µM (active)

$$$$
>  <compound>
CC1CCCCN1C(=O)Cn1c(=O)oc2cc(S(=O)(=O)N3CCCCC3)ccc21 (stereo unspecified)

>  <valueType>
Potency

>  <measurement>
inactive

$$$$

(Q) Entry CCCNC(=O)CCC(=O)N1Cc2ccccc2Oc2ncccc21 has what Potency?
(A) inactive

(Q) Entry COC(=O)C[C@@H]1C=C[C@@H](NC(=O)c2cccnc2)[C@@H](CO)O1 has what Potency?
(A) inactive

(Q) Entry CC1CCc2c(sc(NC(=O)c3ccc(Cn4cc(Br)cn4)o3)c2C(N)=O)C1 (stereo unspecified) has what Potency?
(A) inactive

(Q) Entry COc1cccc(N2C(=O)CC(N3CCc4ccccc4C3)C2=O)c1 (stereo unspecified) has what Potency?
(A) inactive

(Q) Entry O=C1c2ccccc2S(=O)(=O)N1Cc1c(F)cccc1Cl has what Potency?
(A) inactive

(Q) Entry COc1ccc(-c2nn(-c3ccccc3)cc2/C=C\C(=O)N2CCOCC2)cc1[N+](=O)[O-] has what Potency?
(A) inactive

* * *

Assay: qHTS for Inhibitors of human tyrosyl-DNA phosphodiesterase 1 (TDP1): qHTS in cells in absence of CPT; further: nearly all actives have a fitted effect of over 55% in size
Conditions: DT40 Tdp1-/- hTDP1 cells, no CPT, ATP luminescence, 48 h
The campaign covered roughly 420,000 compounds. About 64,000 (15%) were called active. Another 27% or so got no clear call; they are omitted. The call rests on the fitted dose curve; in most records, active means well fitted inhibition curve with a large enough effect; inconclusive means small, poorly fitted or top-dose-only effect; inactive means flat fitted curve, though single readings scatter. Only a sample is shown.
Bench note: report the call from active, inactive

>  <compound>
N#Cc1ccc(-c2ccc3nccn3c2)cc1

>  <assignedClass>
inactive

$$$$
>  <compound>
Cc1nnc(SCC(=O)NC(=O)NC2CCCC2)n1N

>  <assignedClass>
inactive

$$$$
>  <compound>
Cc1ccc(-c2csc(NC(=O)c3cnccn3)n2)cc1C

>  <assignedClass>
inactive

$$$$
>  <compound>
COCCCNC(=O)C1CC(=O)N(CCc2ccccc2)C1 (centres undefined)

>  <assignedClass>
inactive

$$$$
>  <compound>
O=S(=O)(NCc1ccccn1)c1ccc(Br)s1

>  <assignedClass>
inactive

$$$$

(Q) Identify the outcome logged in this assay for the compound shown: O=C(CN1C(=O)c2ccc([N+](=O)[O-])cc2C1=O)Nc1nnc(C2CC2)s1
(A) inactive

(Q) Identify the outcome logged in this assay for the compound shown: S=C(NCc1ccco1)Nc1ccc2c(c1)OCCO2
(A) inactive

(Q) Identify the outcome logged in this assay for the compound shown: COc1ccc(C(=O)OCC(=O)NCCCc2ccccc2)cc1OC
(A) inactive

(Q) Identify the outcome logged in this assay for the compound shown: Cc1cc(C(=O)OCC(=O)Nc2ccccc2Cl)c(C)o1
(A) inactive

(Q) Identify the outcome logged in this assay for the compound shown: C#CCNC(=O)C[C@@H]1C[C@@]2(C(=O)OCC)CCCC=C2N(Cc2ccco2)C1=O
(A) inactive

(Q) Identify the outcome logged in this assay for the compound shown: Cn1c(=O)c2cc(S(=O)(=O)NCCC(=O)Nc3ccc(F)cc3F)ccc2n(C)c1=O
(A) inactive

(Q) Identify the outcome logged in this assay for the compound shown: CC(C)CNC(=O)COC(=O)/C=C/c1ccco1
(A) inactive

(Q) Identify the outcome logged in this assay for the compound shown: Cc1ccc(-c2csc(NC(=O)Cc3cccs3)n2)cc1C
(A) inactive

(Q) Identify the outcome logged in this assay for the compound shown: COc1ccccc1N1CCN(C(CNC(=O)C(=O)NCc2ccc(C)cc2)c2cccnc2)CC1 (centres undefined)
(A) active

* * *

Experiment: qHTS for Inhibitors of human tyrosyl-DNA phosphodiesterase 1 (TDP1): qHTS in cells in absence of CPT; further: nearly all actives have a fitted effect of over 55% in size; further: potency means the concentration at half of the fitted maximal effect
Conditions: DT40 Tdp1-/- hTDP1 cells, no CPT, ATP luminescence, 48 h
In all, about 420,000 compounds went through this assay and about 64,000 (15%) were called active. Roughly 27% stayed inconclusive and do not appear here. A selection follows.
valueType: Potency

Study these solved cases before continuing.
>  <molecule>
O=C(NCc1ccc(Cl)cc1)c1ccc2c(c1)nnn2C1CCCC1

>  <Potency>
inactive

$$$$
>  <molecule>
CCOC(=O)CNC(=O)c1cc2c(=O)n3cccc(C)c3nc2s1

>  <Potency>
inactive

$$$$
>  <molecule>
COc1cccc(S(=O)(=O)NCc2ccc(C(=O)NCc3ccccn3)cc2)c1

>  <Potency>
0.92 µM (active)

$$$$
>  <molecule>
Cc1noc(C)c1C(=O)NCCc1ccc(S(N)(=O)=O)cc1

>  <Potency>
inactive

$$$$
>  <molecule>
Cc1nc2nc(C)c(NS(=O)(=O)c3ccc(C(C)(C)C)cc3)c(=O)n2[nH]1

>  <Potency>
inactive

$$$$

Turning now to a further molecule:
(Q) Entry Cc1cc(C)n2nc(C(=O)OCC(=O)N(CCC#N)c3ccc(F)cc3)nc2n1 has what Potency?
(A) inactive

* * *

Assay: qHTS for Inhibitors of human tyrosyl-DNA phosphodiesterase 1 (TDP1): qHTS in cells in absence of CPT; further: nearly all actives have a fitted effect of over 55% in size; further: potency means the concentration at half of the fitted maximal effect
Details: DT40 Tdp1-/- hTDP1 cells, no CPT, ATP luminescence, 48 h
Among all 420,000 compounds or so, about 64,000 (15%) were called active. Roughly 27% stayed inconclusive and do not appear here. The list is a sample of the results.
valueType: Potency

Study these solved cases before continuing.
>  <compound>
COc1cc(C(O)c2nc3ccccc3n2C)cc(OC)c1OC (centres undefined)

>  <Potency>
18.4 µM (active)

$$$$
>  <compound>
Cc1cccc(N2CC(C)Cn3c2nc2c3c(=O)n(CC(=O)OCc3ccccc3)c(=O)n2C)c1 (centres undefined)

>  <Potency>
13 µM (active)

$$$$
>  <compound>
CCOC(=O)C(NC(=O)CC(C)C)(Nc1sc2c(c1C(N)=O)CCCC2)C(F)(F)F (centres undefined)

>  <Potency>
inactive

$$$$
>  <compound>
CC(C[N+](C)(C)C)OC(N)=O (centres undefined)

>  <Potency>
inactive

$$$$
>  <compound>
O=C(CCn1c(=O)oc2ccccc21)Nc1ccon1

>  <Potency>
inactive

$$$$

(Q) Entry COC(=O)Cn1c2ccc(C)cc2c2nc(C)sc21 has what Potency?
(A) inactive

(Q) Entry COc1ccc(C2CC(c3cccs3)Nc3nnnn32)cc1 (centres undefined) has what Potency?
(A) inactive

(Q) Entry Cc1cc(OCC(=O)NCC(O)c2ccccc2)c2c(C)c(C)c(=O)oc2c1 (centres undefined) has what Potency?
(A) inactive

(Q) Entry CCC(C)N(C)C1CCN(C(=S)Nc2ccc(OC)cc2)CC1 (centres undefined) has what Potency?
(A) inactive

(Q) Entry CCN1C(=O)N[C@@H](c2ccccc2)C(C(=O)OC)=C1C has what Potency?
(A) inactive

(Q) Entry CCCCNC(=O)C1CCC(CNS(=O)(=O)c2ccc(NC(C)=O)cc2)CC1 (centres undefined) has what Potency?
(A) inactive

(Q) Entry O=c1[nH]c2c(c(=O)n1-c1ccccc1)CCO2 has what Potency?
(A) inactive

(Q) Entry CC1CCCC(N2CCN(C(=O)c3ccc(F)cc3)CC2)C1 (centres undefined) has what Potency?
(A) inactive
